Just for reference, patent US12576099B2 is where these values come from.

Reported Multiple of total radiation intensity relative to m6A values for the following molecules.
- Tested on: BALB/C mice
- protocol-details: In vivo imaging of Fluc-mRNA LNP expression in mice
- run-conditions: 48 h

Some solved entries appear below for comparison.
{"columns": ["molecule", "obs-value"],
 "data": [
  ["CO[C@@H]1[C@H](OP(=O)(O)OC[C@H]2O[C@@H](n3cnc4c(=O)[nH]c(N)nc43)[C@H](O)[C@@H]2O)[C@@H](COP(=O)(O)OP(=O)(O)OP(=O)(O)OC[C@H]2OC([n+]3cn(C)c4c(=O)[nH]c(N)nc43)[C@H](O)[C@@H](O)[C@@H]2O)O[C@H]1n1cnc2c(N)ncnc21 (stereo partly drawn) [YK-CAP-101]", 0.4],
  ["CCN(CC)C(=O)[C@H]1[C@@H](O)[C@H]([n+]2cn(C)c3c(=O)[nH]c(N)nc32)O[C@@H]1COP(=O)(O)OP(=O)(O)OP(=O)(O)OC[C@H]1O[C@@H](n2cnc3c(N)ncnc32)[C@H](OC)[C@@H]1OP(=O)(O)OC[C@H]1O[C@@H](n2cnc3c(=O)[nH]c(N)nc32)[C@H](O)[C@@H]1O [YK-CAP-111]", 3.8]
]}

In: I am curious: what Multiple of total radiation intensity relative to m6A value has been reported for COC[C@@H]1[C@H](OP(=O)(O)OC[C@H]2O[C@@H](n3cnc4c(=O)[nH]c(N)nc43)[C@H](O)[C@@H]2O)[C@@H](COP(=O)(O)OP(=O)(O)OP(=O)(O)OC[C@H]2O[C@@H]([n+]3cn(C)c4c(=O)[nH]c(N)nc43)[C@H](O)[C@@H]2O)O[C@H]1n1cnc2c(N)ncnc21 [YK-CAP-113] ?
Out: 2.5

In: I am curious: what Multiple of total radiation intensity relative to m6A value has been reported for CCO[C@@H]1[C@H](OP(=O)(O)OC[C@H]2O[C@@H](n3cnc4c(=O)[nH]c(N)nc43)[C@H](O)[C@@H]2O)[C@@H](COP(=O)(O)OP(=O)(O)OP(=O)(O)OC[C@H]2O[C@@H]([n+]3cn(C)c4c(=O)[nH]c(N)nc43)[C@H](O)[C@@H]2O)O[C@H]1n1cnc2c(N)ncnc21 [CAP-2′O-ethyl, reference compound] ?
Out: 1.1

In: I am curious: what Multiple of total radiation intensity relative to m6A value has been reported for CO[C@@H]1[C@H](OP(=O)(O)OC[C@H]2O[C@@H](n3cnc4c(=O)[nH]c(N)nc43)[C@H](O)[C@@H]2O)[C@@H](COP(=O)(O)OP(=O)(O)OP(=O)(O)OC[C@H]2O[C@@H]([n+]3cn(C)c4c(=O)[nH]c(N)nc43)[C@H](O)[C@@H]2C(C)NC(C)=O)O[C@H]1n1cnc2c(N)ncnc21 (stereo partly drawn) [YK-CAP-108] ?
Out: 2.0

In: I am curious: what Multiple of total radiation intensity relative to m6A value has been reported for CNc1ncnc2c1ncn2[C@@H]1O[C@H](COP(=O)(O)OP(=O)(O)OP(=O)(O)OC[C@H]2O[C@@H]([n+]3cn(C)c4c(=O)[nH]c(N)nc43)[C@H](O)[C@@H]2O)[C@@H](OP(=O)(O)OC[C@H]2O[C@@H](n3cnc4c(=O)[nH]c(N)nc43)[C@H](O)[C@@H]2O)[C@H]1OC [m6A, reference compound] ?
Out: 1.0
